# Organism: Homo sapiens
# TEST_NAME: Selectivity index, ratio of IC50 for full length human PDE2A to IC50 for full length human PDE9A
Examples of molecules with documented Ratio IC50 follow.

| MOLECULE | MEASUREMENT |
| --- | --- |
| CCCC1CNCc2c1[nH]c(=O)c(C#N)c2N1CCC(C)(C)CC1.Cl (centres undefined) | > 100 |

Q: Determine its reported Ratio IC50: CCCC1CCCc2c1[nH]c(=O)c(C#N)c2-c1ccc(C)cc1 (centres undefined)
Result: 69

Q: Determine its reported Ratio IC50: CCCC1CNCc2c1[nH]c(=O)c(C#N)c2-c1ccc(C)cc1.Cl (centres undefined)
Result: > 100

Q: Determine its reported Ratio IC50: CCCC1CNCc2c1[nH]c(=O)c(C#N)c2N1CCC2(CC1)CC2 (stereo in doubt; form 2)
Result: > 650

* * *

# Organism: Homo sapiens
# TEST_NAME: Selectivity index, ratio of IC50 for full length human PDE8A to IC50 for full length human PDE9A
MEASURE: Ratio IC50
# answer = number (no unit)

| COMPOUND | MEASUREMENT |
| --- | --- |
| CCCC1CCCc2c1[nH]c(=O)c(C#N)c2-c1ccc(C)cc1 (centres undefined) | 69 |

Please turn your attention to the following entry.
Q: Determine its reported Ratio IC50: CCCC1CNCc2c1[nH]c(=O)c(C#N)c2N1CCC2(CC1)CC2 (stereo in doubt; form 2)
Result: 97

* * *

Examples of molecules with documented Ratio IC50 follow.
# Species: Homo sapiens
# TEST_NAME: Selectivity index, ratio of IC50 for full length human PDE3B to IC50 for full length human PDE9A

Worked cases, answers included:
| MOLECULE | Ratio IC50 |
| --- | --- |
| CCCC1CNCc2c1[nH]c(=O)c(C#N)c2N1CCC2(CC1)CC2 (stereo in doubt; form 2) | > 650 |
| CCCC1CCCc2c1[nH]c(=O)c(C#N)c2-c1ccc(C)cc1 (centres undefined) | 69 |
| CCCC1CNCc2c1[nH]c(=O)c(C#N)c2N1CCC(C)(C)CC1.Cl (centres undefined) | > 100 |

Please turn your attention to the following entry.
Q: Determine its reported Ratio IC50: CCCC1CNCc2c1[nH]c(=O)c(C#N)c2-c1ccc(C)cc1.Cl (centres undefined)
Result: > 100

* * *

# Organism: Homo sapiens
# TEST_NAME: Selectivity index, ratio of IC50 for full length human PDE7B to IC50 for full length human PDE9A
MEASURE: Ratio IC50

| COMPOUND | MEASURE | MEASUREMENT |
| --- | --- | --- |
| CCCC1CNCc2c1[nH]c(=O)c(C#N)c2N1CCC2(CC1)CC2 (stereo in doubt; form 2) | Ratio IC50 | > 650 |
| CCCC1CNCc2c1[nH]c(=O)c(C#N)c2N1CCC(C)(C)CC1.Cl (centres undefined) | Ratio IC50 | > 100 |
| CCCC1CCCc2c1[nH]c(=O)c(C#N)c2-c1ccc(C)cc1 (centres undefined) | Ratio IC50 | 69 |

Q: Determine its reported Ratio IC50: CCCC1CNCc2c1[nH]c(=O)c(C#N)c2-c1ccc(C)cc1.Cl (centres undefined)
Result: > 100

* * *

# Species: Homo sapiens
# TEST_NAME: Selectivity index, ratio of IC50 for full length human PDE11A to IC50 for full length human PDE9A
MEASURE: Ratio IC50
# answer = number (no unit)

| COMPOUND | Ratio IC50 |
| --- | --- |
| CCCC1CCCc2c1[nH]c(=O)c(C#N)c2-c1ccc(C)cc1 (centres undefined) | 69 |

Please turn your attention to the following entry.
Q: Determine its reported Ratio IC50: CCCC1CNCc2c1[nH]c(=O)c(C#N)c2N1CCC2(CC1)CC2 (stereo in doubt; form 2)
Result: 430

Numbers sourced from ChEMBL document CHEMBL5150071.
